# TEST PARAMETERS: in ethyl acetate, 318.15 K
PROPERTY MEASURED: solubility (mole fraction)
Answers are plain numbers.

For the compound O=C(O)CNC(=O)OCc1ccccc1 , what solubility (mole fraction) is on record?
0.0642

---

# TEST PARAMETERS: in methanol, 313.15 K
PROPERTY MEASURED: solubility (mole fraction)
Give bare numbers.

For the compound O=C(O)CNC(=O)OCc1ccccc1 , what solubility (mole fraction) is on record?
0.164

---

# TEST PARAMETERS: in acetonitrile, 288.15 K
PROPERTY MEASURED: solubility (mole fraction)

For the compound O=C(O)CNC(=O)OCc1ccccc1 , what solubility (mole fraction) is on record?
0.0132

---

# TEST PARAMETERS: in methanol, 323.15 K
PROPERTY MEASURED: solubility (mole fraction)

For the compound O=C(O)CNC(=O)OCc1ccccc1 , what solubility (mole fraction) is on record?
0.219

---

# TEST PARAMETERS: in methanol, 283.15 K
PROPERTY MEASURED: solubility (mole fraction)
Give bare numbers.

For the molecule O=C(O)CNC(=O)OCc1ccccc1 , what solubility (mole fraction) is on record?
0.0654

---

# TEST PARAMETERS: in ethanol, 288.15 K
PROPERTY MEASURED: solubility (mole fraction)
Answers are plain numbers.

For the compound O=C(O)CNC(=O)OCc1ccccc1 , what solubility (mole fraction) is on record?
0.0499

---

# TEST PARAMETERS: in n-butanol, 288.15 K
PROPERTY MEASURED: solubility (mole fraction)
One number for each entry.

For the compound O=C(O)CNC(=O)OCc1ccccc1 , what solubility (mole fraction) is on record?
0.0257

---

# TEST PARAMETERS: in ethyl acetate, 288.15 K
PROPERTY MEASURED: solubility (mole fraction)
Answers are plain numbers.

For the compound O=C(O)CNC(=O)OCc1ccccc1 , what solubility (mole fraction) is on record?
0.0222

---

# TEST PARAMETERS: in n-butanol, 313.15 K
PROPERTY MEASURED: solubility (mole fraction)
One number for each entry.

For the compound O=C(O)CNC(=O)OCc1ccccc1 , what solubility (mole fraction) is on record?
0.0786

---

# TEST PARAMETERS: in isopropanol, 293.15 K
PROPERTY MEASURED: solubility (mole fraction)
Give bare numbers.

For the compound O=C(O)CNC(=O)OCc1ccccc1 , what solubility (mole fraction) is on record?
0.0449

---

# TEST PARAMETERS: in n-butanol, 318.15 K
PROPERTY MEASURED: solubility (mole fraction)
Give bare numbers.

For the compound O=C(O)CNC(=O)OCc1ccccc1 , what solubility (mole fraction) is on record?
0.0982

---

# TEST PARAMETERS: in acetone, 293.15 K
PROPERTY MEASURED: solubility (mole fraction)
Answers are plain numbers.

For the molecule O=C(O)CNC(=O)OCc1ccccc1 , what solubility (mole fraction) is on record?
0.0815

The reported measurements were obtained from BigSolDB 2.1.
